# test_system: Bifunctional protein GlmU (Mycobacterium tuberculosis (strain ATCC 25618 / H37Rv)) (UniProt P9WMN3)
# Sequence (P9WMN3 whole entry, looked up): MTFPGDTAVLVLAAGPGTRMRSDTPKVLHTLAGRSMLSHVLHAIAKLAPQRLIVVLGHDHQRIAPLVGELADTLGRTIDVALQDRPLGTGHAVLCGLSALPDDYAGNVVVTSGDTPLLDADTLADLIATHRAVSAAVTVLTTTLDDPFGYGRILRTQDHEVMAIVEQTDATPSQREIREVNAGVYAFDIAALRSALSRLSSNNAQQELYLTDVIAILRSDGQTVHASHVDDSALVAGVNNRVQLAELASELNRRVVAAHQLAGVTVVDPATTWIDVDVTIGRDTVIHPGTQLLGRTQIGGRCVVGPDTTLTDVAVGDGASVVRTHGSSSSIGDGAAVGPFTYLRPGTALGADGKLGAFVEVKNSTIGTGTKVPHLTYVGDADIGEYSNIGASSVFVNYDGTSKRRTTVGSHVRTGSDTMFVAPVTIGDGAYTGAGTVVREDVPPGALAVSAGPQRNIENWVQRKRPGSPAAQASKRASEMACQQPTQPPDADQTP
# test: inhibition of mycobacterial GlmU enzyme – biochemical, glucosamine-1-phosphate acetyltransferase (AID 1376);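 further: 0% = complete reaction with vehicle and 100% = reaction without substrate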
# measurement_conditions: M. tuberculosis GlmU acetyltransferase enzyme assay; hits give high values;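 tested at 30 µM in the primary screen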
Hit rate of the full screen: of about 220,000 compounds, about 530 (0.24%) were called active. The list comes from a sample in which actives are over-represented; it also holds close analogues and randomly drawn compounds. Entries with a potency or affinity are not part of this list.

{"columns": ["compound", "unit_abbrev", "inhibition"],
 "data": [
  ["CN(c1ccccc1)S(=O)(=O)c1ccc(NC(=S)NC(=O)c2ccccc2)cc1", "%", 0.7],
  ["COc1ccc2c(c1)CCc1c(C(=O)N3CCOCC3)noc1-2", "%", 13.8],
  ["Cc1ccc(CNC(=O)CCS(=O)(=O)c2ccc(C)cc2)cc1", "%", -0.32],
  ["CN1CCN(C(c2cccnc2)c2ccc3cccnc3c2O)CC1 (stereo not drawn)", "%", -1.35],
  ["Cc1ccc([N+](=O)[O-])cc1N=Nc1c(-c2ccc([N+](=O)[O-])cc2)[nH]n(C(N)=S)c1=O", "%", 0.14],
  ["COC(=O)c1ccc(NC(=O)CCS(=O)(=O)c2ccc(Br)cc2)cc1", "%", 3.55],
  ["N#Cc1ccc2ccn(CC(=O)NC3CCCCCC3)c2c1", "%", 6.23],
  ["Cc1ccc(CCNC(=O)CCS(=O)(=O)c2ccc(Br)cc2)cc1", "%", -0.29],
  ["Cc1ccc(NC(=O)CN(C)C(=O)c2ccc(S(=O)(=O)N(C)c3ccccc3)cc2)cc1", "%", 2.55],
  ["COc1ccc(NCN2C(=O)C3C4C=CC(C4)C3C2=O)cc1 (stereo not drawn)", "%", 0.26],
  ["Cc1ccc(-n2ncc(C(=O)NCc3ccc4c(c3)OCO4)c2NC(=O)c2ccco2)cc1C", "%", 6.03],
  ["O=C(CCC1CCCCC1)Nc1c2c(nn1-c1ccc(F)cc1)CS(=O)C2 (stereo not drawn)", "%", -0.99],
  ["O=C(NCCCN1CCCCCC1)c1ccc2c(Cl)c3c(nc2c1)CCCC3", "%", -1.55],
  ["O=C(N/N=C/c1ccc([N+](=O)[O-])o1)c1cc2c(ccc3ccccc32)o1", "%", -4.6],
  ["COc1ccc2c(c1)CCc1c(C(=O)N3CCCCCC3)noc1-2", "%", 0.33],
  ["O=[N+]([O-])c1ccc2nccn2c1", "%", 2.74],
  ["COC(=O)c1ccccc1NC(=O)CCS(=O)(=O)c1ccc(Br)s1", "%", 6.53],
  ["CCCCNC(=O)CNC(=S)N(CCCN1CCOCC1)Cc1cccs1", "%", 3.25],
  ["CN(c1ccccc1)S(=O)(=O)c1ccc(NC(=S)Nc2ccccc2)cc1", "%", 18.1],
  ["COc1ccc(NCN2C(=O)CCC2=O)cc1", "%", 13.4],
  ["COc1ccc2c(c1)CCc1c(C(=O)N3CCc4ccccc4C3)noc1-2", "%", 5.33],
  ["CC(C)Oc1ccc(C(=O)N2CCCC2C(=O)O)cc1 (stereo not drawn)", "%", 1.48],
  ["Cc1cc(C)n2nc(CC(=O)NCc3ccc(F)cc3)nc2n1", "%", 3.44]
]}
